Test system: T-cell
assay.explanation: CD25 cell surface staining on T-cells stimulated with anti-CD3 antibody alone (Biological Example 2)
Assay type: cell-based, human
condition.details: T-cell; fold change over baseline; 8 μM Cbl-b inhibitor; primary human total T-cells; read-out: CD25 staining Anti-CD3 stimulation
For each entry below, report its fold induction at 8 µM value.

- C[C@H](Cc1nncn1C)c1cccc(NC(=O)c2nc3c(C4CC4)cccc3[nH]2)c1: 0.801 to 1

Each of the following entries comes with a recorded value; kindly state fold induction at 8 µM for each.
1. Cn1cnnc1CC1(c2cccc(N3Cc4c(cccc4C(F)(F)F)C3=O)c2)COC1
2. C[C@H](Sc1nncn1C)c1cccc(NC(=O)c2ccc(C#N)c(C3CC3)n2)c1
3. C[C@H](Cc1nncn1C)c1cccc(N2Cc3c(cc(C(=O)N4CC(O)C4)cc3C3CC3)C2=O)c1

> 1
> 1
> 1

Could I get fold induction at 8 µM for every one of these entries?
1. C[C@H](Sc1nncn1C)c1cccc(NC(=O)c2cncc(C(F)(F)F)n2)c1
2. CNS(=O)(=O)c1cc(C(=O)Nc2cccc([C@H](C)Cc3nncn3C)c2)nc(C(F)(F)F)c1

1. 0.601 to 0.8
2. > 1

Can you give me fold induction at 8 µM for all of these, one by one?
1. C[C@H](Cc1nncn1C)c1cccc(NC(=O)c2ccnc3ccnn23)c1
2. COc1cc(C(=O)Nc2cccc([C@H](C)Sc3nncn3C)c2)nc(C(F)(F)F)c1

1. > 1
2. 0.801 to 1

###

Tested on: T-cell
assay.explanation: IL-2 secretion from T-cells co-stimulated with anti-CD3 and anti-CD28 antibody (Biological Example 2)
Assay type: cell-based, human
condition.details: Homo sapiens, T-cell, 4 μM compound; primary human total T-cells; baseline = anti-CD3/anti-CD28 stimulated cells without inhibitor; read-out: IL-2 secretion, Anti-CD3/Anti-CD28 stimulation, fold change over baseline
readout.type: fold induction at 4 µM

* Cn1cnnc1CC(C)(C)c1cccc(NC(=O)c2cc(C(=O)N3CC[C@H](O)C3)cc(C(F)(F)F)n2)c1 | 5 to 7.5
* Cn1cnnc1C(F)(F)[C@](C)(F)c1cccc(N2Cc3c(cc(CN4CC[C@@H](S(C)(=O)=O)C4)cc3C(F)(F)F)C2=O)c1 | > 7.5
* Cn1cnnc1CC1(c2cccc(N3Cc4c(cc(CN5CC[C@@H](C#N)C5)cc4C(F)(F)F)C3=O)c2)COC1 | > 7.5
* Cn1cnnc1CC1(c2cccc(N3Cc4c(cc(CO)cc4C(F)(F)F)C3=O)c2)COC1 | > 7.5
* C[C@H](Cc1nncn1C)c1cccc(N2Cc3c(cc(CN4CC(F)(F)C4)cc3C(F)(F)F)C2=O)c1 | > 7.5

# per-item lookup of fold induction at 4 µM; items listed below
1. Cc1conc1C[C@@H](C)c1cccc(N2Cc3c(cc(C(=O)N4CC[C@H](O)C4)cc3C(F)(F)F)C2=O)c1
2. Cn1cnnc1C(F)(F)[C@](C)(F)c1cccc(N2Cc3c(cc(CN4CC[C@H](F)C4)cc3C(F)(F)F)C2=O)c1
3. C[C@H](Cc1nncn1C)c1cccc(N2Cc3c(cc(C4CC4)nc3C3CC3)C2=O)c1
4. C[C@H](Cc1nncn1C)c1cccc(N2Cc3c(cc([C@@H](C)N4CC(O)C4)cc3C(F)(F)F)C2=O)c1

> 7.5
> 7.5
5 to 7.5
> 7.5

Each of the following entries comes with a recorded value; kindly state fold induction at 4 µM for each.
1. Cn1cnnc1CC1(c2cccc(N3Cc4c(cc(CN5CCC(F)(F)C5)cc4C(F)(F)F)C3=O)c2)COC1
2. C[C@H](O)CNc1cc([C@H](C)Cc2nncn2C)cc(N2Cc3c(cccc3C(F)(F)F)C2=O)n1
3. Cn1cnnc1C(F)(F)[C@@](C)(F)c1cccc(N2Cc3c(cc(CN4CC[C@H](F)C4)cc3C(F)(F)F)C2=O)c1

["> 7.5", "1.01 to 2.5", "1.01 to 2.5"]

Provide fold induction at 4 µM values for the following items, in order.
1. Cn1cnnc1C(F)(F)[C@](C)(F)c1cccc(N2Cc3c(cc(CN4C[C@@H](F)[C@@H](F)C4)cc3C(F)(F)F)C2=O)c1
2. C[C@H](Cc1nncn1C)c1cccc(N2Cc3c(cc(CN4CC[C@H](F)C4)cc3C(F)(F)F)C2=O)c1
3. C[C@H](c1cc2c(c(C(F)(F)F)c1)CN(c1cccc([C@@](C)(F)C(F)(F)c3nncn3C)c1)C2=O)N1CC[C@H](F)C1

1. > 7.5
2. > 7.5
3. > 7.5

###

Field: IC50. Provide a value for each of the compounds that follow.
tgt: Cbl-b (Homo sapiens, UniProt Q13191)
Sequence (Q13191 36-427): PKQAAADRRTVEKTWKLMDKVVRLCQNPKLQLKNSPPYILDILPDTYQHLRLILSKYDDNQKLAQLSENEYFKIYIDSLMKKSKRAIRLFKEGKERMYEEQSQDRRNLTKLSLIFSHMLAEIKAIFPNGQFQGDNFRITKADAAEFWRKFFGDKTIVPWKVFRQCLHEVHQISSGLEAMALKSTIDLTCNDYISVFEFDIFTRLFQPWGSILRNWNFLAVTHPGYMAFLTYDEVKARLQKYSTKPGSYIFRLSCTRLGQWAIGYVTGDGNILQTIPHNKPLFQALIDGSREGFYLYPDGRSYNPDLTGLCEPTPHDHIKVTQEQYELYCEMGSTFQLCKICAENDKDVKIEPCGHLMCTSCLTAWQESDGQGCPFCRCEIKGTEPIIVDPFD
assay.explanation: Cbl-b inhibition assay (Cbl-b activity assay, FRET, Biological Example 1; 100 mM NaCl, 60 nM Src kinase)
Format: biochemical
condition.details: upper bound stated in text lists; read-out: IC50 values in the Cbl-b inhibition assay of Biological Example 1

- CC(c1cc2c(c(C(F)(F)F)c1)CN(c1cccc(C3(C(F)(F)c4nncn4C)COC3)c1)C2=O)N1CC[C@H](F)C1 (stereo partly drawn) [Example 678]: ≤ 100 nM

For each of the items listed, what is its IC50?
1. C[C@@H](c1cccc(N2Cc3c(cccc3C(F)(F)F)C2=O)c1)[C@@H](O)c1nncn1C (racemic) [Compound 292]
2. Cn1cnnc1C(F)(F)[C@](C)(F)c1cccc(N2Cc3c(cc(CN4C[C@@H](F)[C@@H](F)C4)cc3C(F)(F)F)C2=O)c1 [Compound 461]
3. Cn1cnnc1SC(CCO)c1cccc(NC(=O)c2cccc(C(F)(F)F)n2)c1 (stereo not drawn) [Compound 181]

["≤ 10000 nM", "≤ 100 nM", "≤ 10000 nM"]

###

System: T-cell
assay.explanation: CD25 cell surface staining on T-cells co-stimulated with anti-CD3 and anti-CD28 antibody (Biological Example 2)
Type: cell-based, human
condition.details: Homo sapiens, T-cell, 0.3 μM Cbl-b inhibitor; fold change over baseline (anti-CD3/anti-CD28 stimulated T-cells without inhibitor); read-out: CD25 staining Anti-CD3/Anti-CD28 stimulation
readout.type: fold induction at 0.3 µM

# count of solved cases: 3
* C[C@H](c1cc2c(c(C(F)(F)F)c1)CN(c1cccc(C3(C(F)(F)c4nncn4C)COC3)c1)C2=O)N1CC[C@H](F)C1 [Example 571] | > 1.76
* Cn1cnnc1CC1(c2cccc(N3Cc4c(cc(C5CCC5)cc4C(F)(F)F)C3=O)c2)COC1 [Example 611] | 1.01 to 1.3
* Cn1cnnc1[C@@H](F)C1(c2cccc(N3Cc4c(cc(CN5CCCCC5)cc4C(F)(F)F)C3=O)c2)COC1 [Example 674a] | 1.31 to 1.5

Provide each entry's fold induction at 0.3 µM from the list below.
1. COc1ccc2c(c1)CN(Cc1cc3c(c(C(F)(F)F)c1)CN(c1cccc(C4(Cc5nncn5C)COC4)c1)C3=O)C2 [Example 656]
2. CN1CCN(Cc2cc3c(c(C(F)(F)F)c2)CN(c2cccc(C4(Cc5nncn5C)COC4)c2)C3=O)CC1 [Example 625]
3. Cn1cnnc1CC1(c2cccc(N3Cc4c(cc(CN5CCCc6c5cnn6C)cc4C(F)(F)F)C3=O)c2)COC1 [Example 651]

["1.31 to 1.5", "1.31 to 1.5", "1.01 to 1.3"]

For every item below, please supply its fold induction at 0.3 µM.
1. CN1C[C@H]2CC[C@@H](C1)N2c1cc(C(=O)Nc2cccc(C3(Cc4nncn4C)COC3)c2)nc(C2CC2)n1 [Example 573]
2. CC(c1cc(C(=O)Nc2cccc(C3(Cc4nncn4C)COC3)c2)nc(C2CC2)n1)N1CCCC1 (stereo not shown) [Example 593]

1.31 to 1.5
1.31 to 1.5

Okay, here is my list. What is fold induction at 0.3 µM for each of these?
1. CC1CCN(Cc2cc3c(c(C(F)(F)F)c2)CN(c2cccc(C4(Cc5nncn5C)COC4)c2)C3=O)CC1(F)F (stereo not shown) [Example 635]
2. Cn1cnnc1[C@@H](F)C1(c2cccc(N3Cc4c(cc(CN5CCC(F)CC5)cc4C(F)(F)F)C3=O)c2)COC1 [Example 670a]
3. Cc1cc(C(=O)Nc2cccc(C3(Cc4nncn4C)COC3)c2)n2nccc2n1 [Example 596]
4. Cn1cnnc1CC1(c2cccc(NC(=O)c3cc(CN4CCCCC4)nc(C4CC4)n3)c2)COC1 [Example 589]

["1.31 to 1.5", "1.51 to 1.75", "1.01 to 1.3", "> 1.76"]

Return reported fold induction at 0.3 µM values for all items listed beneath this line.
1. CN1CC2CCC1CN2c1cc2c(c(C(F)(F)F)c1)CN(c1cccc([C@@](C)(F)C(F)(F)c3nncn3C)c1)C2=O (stereo partly shown) [Example 565]
2. C[C@H](Cc1nncn1C)c1cc(N2Cc3c(cccc3C(F)(F)F)C2=O)nc(C2(C)CC2)c1 [Example 681]

["1.31 to 1.5", "1.01 to 1.3"]

For every listed record, write down its fold induction at 0.3 µM.
1. Cn1cnnc1CC1(c2cccc(N3Cc4c(cc(CN5CCCC(F)(F)C5)cc4C(F)(F)F)C3=O)c2)COC1 [Example 693]
2. Cn1cnnc1CC1(c2cccc(N3Cc4c(cc(N5CCNC6(CC6)C5)cc4C(F)(F)F)C3=O)c2)COC1 [Example 582]

1. 1.51 to 1.75
2. 1.31 to 1.5

Please give fold induction at 0.3 µM, item by item, for the list that follows.
1. Cn1cnnc1CC1(c2cccc(N3Cc4c(cc(N5CC(C(F)(F)F)C5)cc4C(F)(F)F)C3=O)c2)COC1 [Example 600]
2. Cn1cnnc1CC1(c2cccc(N3Cc4c(cc(CN5CC[C@H](c6ccccc6)C5)cc4C(F)(F)F)C3=O)c2)COC1 [Example 662a]
3. C[C@@H](c1cc2c(c(C(F)(F)F)c1)CN(c1cccc(C3(C(F)(F)c4nncn4C)COC3)c1)C2=O)N1CC[C@H](F)C1 [Example 570]
4. CC(c1cc2c(c(C3CC3)n1)CN(c1cccc(C3(Cc4nncn4C)COC3)c1)C2=O)N1CCCCC1 (stereo not shown) [Example 587]
5. Cn1cnnc1CC1(c2cccc(N3Cc4c(cc(CN5CCC(F)(F)CC5)cc4C(F)(F)F)C3=O)c2)COC1 [Example 633]
6. Cn1cnnc1[C@H](F)C1(c2cccc(N3Cc4c(cc(CN5C6CCCC5CC6)cc4C(F)(F)F)C3=O)c2)COC1 [Example 675b]

1: 1.01 to 1.3; 2: 1.01 to 1.3; 3: 1.31 to 1.5; 4: > 1.76; 5: 1.31 to 1.5; 6: 1.31 to 1.5
